target: hCD1b dimer (Homo sapiens, UniProt P29016); experiment: Competitive ELISA assay
Sequence (P29016 18-303 limits assumed): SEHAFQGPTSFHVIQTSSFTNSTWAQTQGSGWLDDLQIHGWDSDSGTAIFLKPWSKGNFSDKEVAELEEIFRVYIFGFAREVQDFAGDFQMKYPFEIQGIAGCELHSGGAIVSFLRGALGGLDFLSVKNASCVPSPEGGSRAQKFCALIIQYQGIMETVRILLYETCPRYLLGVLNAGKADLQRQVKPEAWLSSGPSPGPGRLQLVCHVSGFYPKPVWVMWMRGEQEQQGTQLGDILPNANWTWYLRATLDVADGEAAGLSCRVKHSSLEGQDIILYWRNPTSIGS
MEASURED_PROPERTY: pKi
On this scale, pKi is minus log10 of a concentration expressed in M (mol/L).

Incoming: Which pKi value is on record for CCCCCCCCCCCCCCCCCCCCCCCCCC(=O)N[C@@H](CO[C@H]1O[C@H](CO)[C@H](O)[C@H](O)[C@H]1O)[C@H](O)[C@H](O)CCCCCCCCCCCCCC [α-GalCer, α-galactosylceramide] ?
Outgoing: 5.55

----------
molecular target: hCD1c dimer (Homo sapiens, UniProt P29017); test: Competitive ELISA assay; type: binding
Sequence (P29017 18-302 limits assumed): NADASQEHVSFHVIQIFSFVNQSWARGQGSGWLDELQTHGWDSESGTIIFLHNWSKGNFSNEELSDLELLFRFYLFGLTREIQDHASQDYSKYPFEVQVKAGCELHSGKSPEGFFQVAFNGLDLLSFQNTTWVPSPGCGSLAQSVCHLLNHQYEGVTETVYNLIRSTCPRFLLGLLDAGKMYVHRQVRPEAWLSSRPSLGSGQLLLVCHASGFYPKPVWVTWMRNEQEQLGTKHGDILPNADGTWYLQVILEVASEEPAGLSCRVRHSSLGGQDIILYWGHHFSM
MEASURED_PROPERTY: Ki (nM)
API: value field is a number in nM; no unit string.

Incoming: What does the record list as Ki for CCCCCCCCCCCCCCCCCCCCCCCCCC(=O)N[C@@H](CO[C@H]1O[C@H](CO)[C@H](O)[C@H](O)[C@H]1O)[C@H](O)[C@H](O)CCCCCCCCCCCCCC [α-GalCer, α-galactosylceramide] ?
Outgoing: 1370
